Listing: fold change of affinity of selected binders
Molecular target: T1, Human CD3eg linker (human)
T1 construct: Single chain: epsilon and gamma subunits of human CD3 joined by a 29-mer linker, Flag-tag at the C-terminus; also called recombinant human CD3
T1 chain: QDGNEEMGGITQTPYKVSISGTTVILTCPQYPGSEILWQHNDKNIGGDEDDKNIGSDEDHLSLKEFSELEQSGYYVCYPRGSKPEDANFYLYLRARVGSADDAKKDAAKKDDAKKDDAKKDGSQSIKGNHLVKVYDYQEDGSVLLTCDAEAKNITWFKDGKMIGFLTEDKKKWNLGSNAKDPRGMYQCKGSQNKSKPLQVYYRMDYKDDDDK
Experiment: Biacore SPR, vs template H183/L072
Express it in fold; write the number only.

Binder	Unit of measurement	fold change of affinity
H183/L072 VH K52bG (antibody, name in Kabat numbering, V domains shown) VH: QVQLVESGGGLVQPGRSLRLSCAASGFTFSNAWMHWVRQAPGKGLEWVAQIKDGGNAYAAYYAPSVKGRFTISRDDSKNSIYLQMNSLKTEDTAVYYCHYVHYASASTVLPAFGVDAWGQGTTVTVSS VL: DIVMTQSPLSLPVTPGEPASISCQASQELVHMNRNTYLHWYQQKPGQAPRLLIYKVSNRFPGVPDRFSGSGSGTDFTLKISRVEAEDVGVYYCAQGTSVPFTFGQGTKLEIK	fold	0.8

If you can, please state the reported fold change of affinity value of H183/L072 VH Y58L (antibody, name in Kabat numbering, V domains shown) VH: QVQLVESGGGLVQPGRSLRLSCAASGFTFSNAWMHWVRQAPGKGLEWVAQIKDKGNAYAALYAPSVKGRFTISRDDSKNSIYLQMNSLKTEDTAVYYCHYVHYASASTVLPAFGVDAWGQGTTVTVSS VL: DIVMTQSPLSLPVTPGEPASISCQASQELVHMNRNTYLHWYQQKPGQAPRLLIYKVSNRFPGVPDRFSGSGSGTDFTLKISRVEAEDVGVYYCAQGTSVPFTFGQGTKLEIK .
0.4

Field request: fold change of affinity | item: H183/L072 VH G26S (antibody, name in Kabat numbering, V domains shown) VH: QVQLVESGGGLVQPGRSLRLSCAASSFTFSNAWMHWVRQAPGKGLEWVAQIKDKGNAYAAYYAPSVKGRFTISRDDSKNSIYLQMNSLKTEDTAVYYCHYVHYASASTVLPAFGVDAWGQGTTVTVSS VL: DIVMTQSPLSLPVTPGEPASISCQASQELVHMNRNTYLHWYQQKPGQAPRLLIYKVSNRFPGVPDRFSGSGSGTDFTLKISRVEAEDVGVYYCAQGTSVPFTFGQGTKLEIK
0.2

What fold change of affinity value was documented for this binder, H183/L072 VH H96A (antibody, name in Kabat numbering, V domains shown) VH: QVQLVESGGGLVQPGRSLRLSCAASGFTFSNAWMHWVRQAPGKGLEWVAQIKDKGNAYAAYYAPSVKGRFTISRDDSKNSIYLQMNSLKTEDTAVYYCHYVAYASASTVLPAFGVDAWGQGTTVTVSS VL: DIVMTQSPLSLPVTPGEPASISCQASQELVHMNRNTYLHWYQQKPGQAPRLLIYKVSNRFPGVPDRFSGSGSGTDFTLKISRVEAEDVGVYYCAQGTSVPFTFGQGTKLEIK ?
0.3

Reported fold change of affinity, binder H183/L072 VH Y59F (antibody, name in Kabat numbering, V domains shown) VH: QVQLVESGGGLVQPGRSLRLSCAASGFTFSNAWMHWVRQAPGKGLEWVAQIKDKGNAYAAYFAPSVKGRFTISRDDSKNSIYLQMNSLKTEDTAVYYCHYVHYASASTVLPAFGVDAWGQGTTVTVSS VL: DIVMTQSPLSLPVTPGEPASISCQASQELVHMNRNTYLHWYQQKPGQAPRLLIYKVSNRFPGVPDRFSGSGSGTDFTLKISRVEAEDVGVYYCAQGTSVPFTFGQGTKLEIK : ____
0.6

Which fold change of affinity value is on record for H183/L072 VH K52Y (antibody, name in Kabat numbering, V domains shown) VH: QVQLVESGGGLVQPGRSLRLSCAASGFTFSNAWMHWVRQAPGKGLEWVAQIYDKGNAYAAYYAPSVKGRFTISRDDSKNSIYLQMNSLKTEDTAVYYCHYVHYASASTVLPAFGVDAWGQGTTVTVSS VL: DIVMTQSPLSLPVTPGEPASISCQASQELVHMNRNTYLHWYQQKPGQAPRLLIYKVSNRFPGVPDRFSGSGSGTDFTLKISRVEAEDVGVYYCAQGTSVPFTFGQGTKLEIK ?
0

Can you share its fold change of affinity? I mean this binder: H183/L072 VH A56T (antibody, name in Kabat numbering, V domains shown) VH: QVQLVESGGGLVQPGRSLRLSCAASGFTFSNAWMHWVRQAPGKGLEWVAQIKDKGNAYTAYYAPSVKGRFTISRDDSKNSIYLQMNSLKTEDTAVYYCHYVHYASASTVLPAFGVDAWGQGTTVTVSS VL: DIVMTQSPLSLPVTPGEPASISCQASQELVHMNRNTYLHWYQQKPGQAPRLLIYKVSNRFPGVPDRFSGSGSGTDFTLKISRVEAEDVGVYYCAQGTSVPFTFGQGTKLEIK
0.7

Request the reported fold change of affinity associated with H183/L072 VH Q50S (antibody, name in Kabat numbering, V domains shown) VH: QVQLVESGGGLVQPGRSLRLSCAASGFTFSNAWMHWVRQAPGKGLEWVASIKDKGNAYAAYYAPSVKGRFTISRDDSKNSIYLQMNSLKTEDTAVYYCHYVHYASASTVLPAFGVDAWGQGTTVTVSS VL: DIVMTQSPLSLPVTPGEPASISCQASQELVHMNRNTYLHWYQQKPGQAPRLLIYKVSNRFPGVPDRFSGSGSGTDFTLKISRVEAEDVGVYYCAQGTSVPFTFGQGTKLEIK
0

If you can, please state the reported fold change of affinity value of H183/L072 VH A32R (antibody, name in Kabat numbering, V domains shown) VH: QVQLVESGGGLVQPGRSLRLSCAASGFTFSNRWMHWVRQAPGKGLEWVAQIKDKGNAYAAYYAPSVKGRFTISRDDSKNSIYLQMNSLKTEDTAVYYCHYVHYASASTVLPAFGVDAWGQGTTVTVSS VL: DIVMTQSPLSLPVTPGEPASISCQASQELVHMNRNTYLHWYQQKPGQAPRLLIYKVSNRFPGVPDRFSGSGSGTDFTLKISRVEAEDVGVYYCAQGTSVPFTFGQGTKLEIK .
0.6

Item under review: H183/L072 VH H93L (antibody, name in Kabat numbering, V domains shown) VH: QVQLVESGGGLVQPGRSLRLSCAASGFTFSNAWMHWVRQAPGKGLEWVAQIKDKGNAYAAYYAPSVKGRFTISRDDSKNSIYLQMNSLKTEDTAVYYCLYVHYASASTVLPAFGVDAWGQGTTVTVSS VL: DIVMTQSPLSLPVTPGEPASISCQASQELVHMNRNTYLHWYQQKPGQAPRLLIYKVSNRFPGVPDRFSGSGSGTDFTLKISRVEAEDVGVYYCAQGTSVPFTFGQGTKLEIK . Reported fold change of affinity?
0
